Assay: Solubility with chemiluminescent nitrogen detector (C.3.b)
Format: physicochemical
Conditions: pH 2.3, aqueous buffer
Measured Property: solubility (mg/mL)
Give just the number in mg/mL; leave the unit off.

Q: Returns the measured solubility for the input compound. Input: Cn1cc(C2CCN(CC3CCN(c4ncc(C(=O)NO)cn4)CC3)C2)c2ccccc21 (stereo not shown) [Compound 2]
A: 1.35

----------
1.0 if melting point is below 200 °C. 0.0 if not; exact matches included in 0.0.

Cn1cc(C2CCN(CC3CCN(c4ccc(C(=O)Nc5ccccc5N)cn4)CC3)C2)c2ccccc21 (centres unmarked)
1.0
CC(NCC1CCN(c2ncc(C(=O)NO)cn2)CC1)c1cn(C)c2ccccc12 (centres unmarked)
0.0
Cn1cc(C2CCN(CC3CCN(c4ccc(C(=O)NO)cn4)CC3)C2)c2ccccc21 (centres unmarked)
1.0

Q: Below 200 °C on melting point? Entry Cn1cc(C2CCCN(CC3CCN(c4ncc(C(=O)NO)cn4)CC3)C2)c2ccccc21 (centres unmarked)
A: 0.0

Q: Below 200 °C on melting point? Entry Cn1cc(C2CCN(CC3CCN(c4ncc(C(=O)NO)cn4)CC3)C2)c2ccccc21 (centres unmarked)
A: 0.0
